test: NCI Yeast Anticancer Drug Screen. Data for the sgs1 mgt1 strain (AID 161);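 also: 0% = growth of cultures given vehicle only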; settings: S. cerevisiae sgs1 mgt1 strain, at 50.0 µM, hits give high values
About 79,000 compounds went through this panel and 15% of them were active in at least one assay; those are over-represented in the sample as a whole. Calls of active or inactive are those of the source. Rule as the data show it: active = growth inhibition above about 70%; inactive = the rest.
This listing pairs compounds with measured growth inhibition.

These solved cases illustrate the format of a correct answer.
>>> df
                                   compound  attribute_measured  observed_measurement
0  CCOC(=O)c1c(-c2ccc(Cl)cc2)c(C#N)c(=S)n(C2OC(COC(C)=O)C(OC(C)=O)C(OC(C)=O)C2OC(C)=O)c1C (stereo unspecified)   growth inhibition     -1.75% (inactive)
1                      C1CN(SSN2CCSCC2)CCS1   growth inhibition       6.5% (inactive)
2  CCS1=C2C(=O)CC(C)(C)CC2=Nc2ccccc21 (stereo unspecified)   growth inhibition      18.9% (inactive)
3         CSc1nnc(N(C(C)C)C(C)C)c2nc[nH]c12   growth inhibition      16.1% (inactive)
4  O=C1CC23CC(=O)CC2(C1)c1ccccc1C3=O (stereo unspecified)   growth inhibition      4.65% (inactive)

Proceeding to the next compound to report its growth inhibition.
Recorded growth inhibition (compound NC(=O)N/N=C/c1cccc(O)c1O ): -24.7% (inactive)

###

assay: NCI Yeast Anticancer Drug Screen. Data for the bub3 strain (AID 167); conditions: S. cerevisiae bub3 mutant strain, at 50.0 µM, hits give high values
About 79,000 compounds went through this panel and 15% of them were active in at least one assay; those are over-represented in the sample as a whole.
growth inhibition vs 20%: at or above is 1, below is -1.

                                   molecule  label_value
0  CN(C(=O)C12C3C4C1C1C2C3C41C(=O)N(C)C(C)(C)C)C(C)(C)C (stereo unspecified)            1
1           Cc1cc(O)c(C(C)C)cc1N=Cc1ccccc1O           -1
2  O/N=C1/C(=C/c2ccc(F)cc2)CCCC1C(NO)c1ccc(F)cc1 (stereo unspecified)           -1

Check the entry CC(C)(C)CC(C)(C)c1ccc(OCc2ccc(C(F)(F)F)cc2)cc1 : does growth inhibition equal or exceed 20%?
-1

Record CCOC(=C\C=C\C1=[N+](C)c2ccccc2C1(C)C)/C=C/C=C1/N(C)c2ccccc2C1(C)C ; criterion: growth inhibition no lower than 20%. Met?
1

Can O=C(O)CNC1CCCC1 be said to have growth inhibition at or above 20%?
-1

###

Each entry below carries its reported growth inhibition.
assay: NCI Yeast Anticancer Drug Screen. Data for the mec2-1 strain (AID 157); settings: S. cerevisiae mec2-1 strain, at 50.0 µM, hits give high values
The panel holds about 79,000 compounds, 15% with a hit somewhere; the sample as a whole holds those more often.
Write it as a number; the unit % goes unstated.

Consider the following illustrative entries.
>>> print(df.to_string())
                                   compound  output_unit  observed_measurement
0  COC(=O)C1C(=O)CC(C)(O)C(C(=O)OC)C1c1ccc(N(C)C)cc1 (stereo unspecified)            %                  19.9
1  O=C1C2C=CC(n3[nH]c(=O)n(Cc4ccccc4)c3=O)CC2C(=O)N1c1ccc(Br)cc1 (stereo unspecified)            %                   3.8
2                 COc1ccc(C#CC(=O)O)c(OC)c1            %                  -2.1

// recorded growth inhibition for CCCCC(CC)(CC(=O)O)CC(=O)O : 9.85

CCOc1ccccc1NC(=O)CC(C(=O)OC)C(=O)C(=O)OC (stereo unspecified) yielded growth inhibition of 5.75

growth inhibition for CC(CO)(CO)N1C(=O)C2C3c4ccccc4C(c4ccccc43)C2C1=O (stereo unspecified) is 1.05

FYI, the data here is from PubChem BioAssay (NCI).
